TGI: recorded values
Tested on: OVCAR-5 ovarian
Assay: NCI tumour cell line growth inhibition, 48 h

| compound | limit_sign | TGI / µM |
| --- | --- | --- |
| Nc1nc(N)[n+]([O-])c(N)c1NCO | > | 100 |
| Cc1cc(C)nc(NS(=O)(=O)c2ccc(Nc3c4ccccc4nc4c(C(=O)Nc5ccc(S(N)(=O)=O)cc5)cccc34)cc2)n1 | > | 100 |
| COc1cc2cc(Oc3ccc(NC(=O)Nc4cccc(C(F)(F)F)c4)cc3)c(C)nc2cc1OCCN1CCCCC1 | = | 3.29 |
| O=[N+]([O-])c1cccc(N=C2c3ccccc3CN2c2cccc([N+](=O)[O-])c2)c1 | > | 100 |
| CCOC(=O)C1(Cc2ccccc2)Cc2cc3c(cc2C1)CCC3 | = | 66.3 |
| CCCCCCCCCCCCc1ccc(C(=O)/C=C/C(=O)O)cc1 | = | 23.1 |
| CCCCCCC(=O)C/C(CCC(=O)N(Cc1ccccc1)Cc1ccccc1)=N\Nc1ccc([N+](=O)[O-])cc1[N+](=O)[O-] | > | 100 |
| CCOc1ccc2ccccc2c1NC1=NCCO1 | > | 100 |
| CC(O)c1c2c(cc3c1CC1(C3)Cc3cc4c(c(C(C)O)c3C1)CCC4)CCC2 (centres undefined) | = | 50.2 |

---

System: SF-268 CNS
Test: NCI tumour cell line growth inhibition, 48 h
readout_name: TGI

| compound | readout_name | result |
| --- | --- | --- |
| CSCCC(NCc1c(O)ccc2ccc(=O)oc12)C(=O)O (stereo not given) | TGI | > 100 µM |
| CCN(CC)CCNC(=O)c1ccc([N+](=O)[O-])cc1OC | TGI | > 100 µM |
| Cc1ccc(-c2c(C#N)c(N)nc(N3CCOCC3)c2C#N)o1 | TGI | > 100 µM |
| N#Cc1cccc(C2ON=C(c3ccc([N+](=O)[O-])cc3)N2C23CC4CC(CC(C4)C2)C3)c1 (stereo not given) | TGI | > 100 µM |
| N#C/C(=C\c1c(-c2ccccc2)[nH]c2ccccc12)C(=O)c1ccc(Cl)cc1 | TGI | 24.8 µM |
| COc1ccc(/C=C2/CCCC/C2=N/O)cc1 | TGI | > 100 µM |
| CCC1(OC(=O)CN2CCN(CCO)CC2)C(=O)OCc2c1cc1n(c2=O)Cc2cc3ccccc3nc2-1 (stereo not given) | TGI | 13.2 µM |
| CC(=O)OC1/C(=C/c2ccc([N+](=O)[O-])cc2)C[C@H]2[C@@H]3CC=C4C[C@@H](OC(C)=O)CC[C@]4(C)[C@H]3CC[C@]12C (stereo not given in full) | TGI | > 100 µM |
| ClC(Cl)(Cl)C1CCOC1n1nc2ccccc2n1 (stereo not given) | TGI | > 100 µM |
| COc1cc2c(cc1OC)C1Cc3ccccc3CCN1CC2 (stereo not given) | TGI | > 100 µM |

---

System: TK-10 renal
Assay: NCI tumour cell line growth inhibition, 48 h
In this section we review reported TGI values for a set of compounds.
readout_name: TGI

| compound | result |
| --- | --- |
| CCOP(=O)(OCC)C1C(=O)O[C@H]2CCCC[C@@H]12 (stereo not given in full) | > 100 µM |
| CCCCN(CCCC)C(=O)C(=O)CC(=O)c1ccc(Br)cc1 | > 100 µM |
| CCC1(OC(=O)CN2CCN(CCO)CC2)C(=O)OCc2c1cc1n(c2=O)Cc2cc3ccccc3nc2-1 (stereo not given) | > 100 µM |
| C=C(c1ccccc1N)[C@@]1(O)C[C@H](/C(=C\C)CO)C[C@@H]1NCc1ccccc1 | 44.1 µM |
| O=S(=O)(O)CS(=O)(=O)OCCCl | > 100 µM |
| COc1cc(C2C(Cl)C(=O)N2n2cnc3ccccc3c2=O)cc(OC)c1OC (stereo not given) | > 100 µM |
| COc1cc(N(CCC#N)CCC#N)ccc1/C(N=Nc1ccc(C)cc1)=N/NC(=O)c1cc(Br)ccc1O | 82 µM |
| O=C1C(C(O)(C(F)(F)Cl)C(F)(F)Cl)CCC1C(O)(C(F)(F)Cl)C(F)(F)Cl (stereo not given) | > 10 µM |
| Cc1cc(Br)cc(C)c1NC(=O)C(=O)CC(=O)c1sc(-n2nc(-c3ccccc3)cc2-c2ccccc2)nc1C | > 100 µM |
| Cc1c(C(=O)CSc2nc3ccc([N+](=O)[O-])cc3[nH]2)c(=O)n(-c2ccccc2)n1C | > 100 µM |

---

Test system: CAKI-1 renal
Experiment: NCI tumour cell line growth inhibition, 48 h

| compound | GI50 |
| --- | --- |
| CCOC(=O)c1cnc(SCc2ccc(Cl)c(Cl)c2)nc1N1CC1 | 2.08 µM |
| Nc1ccn(C=C=CCO)c(=O)n1 | > 1000 µM |
| Nc1cccc2c1C(=O)N(C1CCC(=O)NC1=O)C2=O (centres undefined) | > 100 µM |
| O=C(Nc1n[nH]c2nc(-c3ccco3)c(Br)cc12)C1CC1 | > 25 µM |

---

Test system: OVCAR-4 ovarian
Test: NCI tumour cell line growth inhibition, 48 h
Recorded TGI values for a group of molecules are listed next.
readout_name: TGI (µM)

| molecule | limit_sign | numeric_value |
| --- | --- | --- |
| Cc1c2c(c(C)n1-c1ccccc1)C(=O)N(CCSC(=N)N)C2=O | > | 100 |
| O=C(O)C(CS)NCc1c2ccccc2[n+]([O-])c2ccccc12 (stereo unspecified) | = | 86.6 |
| CCOC(=O)c1cccc(NC(=O)CBr)c1 | = | 3.73 |
| CCOc1ccc2ccccc2c1NC1=NCCO1 | > | 100 |
| CCOc1ccc(N2C(=O)C3c4[nH]c5ccccc5c4C4CCC(C(C)(C)C)CC4C3C2=O)cc1 (stereo unspecified) | > | 100 |
| O=C(c1cccs1)c1c(C(F)(F)F)n([O-])c2ccc(C(F)(F)F)cc2[n+]1=O | = | 0.531 |
| COc1ccccc1C(=O)/C=C/c1cc2cccc(OC)c2[nH]c1=O | = | 8.37 |
| N#C/C(=C\c1c(-c2ccccc2)[nH]c2ccccc12)C(=O)c1ccc(Cl)cc1 | = | 22.8 |
| Nc1cccc2c1C(=O)N(C1CCC(=O)NC1=O)C2=O (stereo unspecified) | > | 100 |
| Cc1cc(S(N)(=O)=O)c(SCc2nc(N)nc(N(C)C)n2)cc1Cl | > | 10 |
| CC1=C(C(=O)Nc2ccccc2)C(c2ccc3c(c2)OCO3)C(C(=O)Nc2ccccc2)=C(C)N1 | = | 81.4 |
| Cc1ccc(S(=O)(=O)NC(CCC(=O)Nc2ccc(Cl)cc2)C(=O)Nc2ccc(Cl)cc2)cc1 (stereo unspecified) | = | 3.46 |
| Cc1c(C(=O)CSc2nc3ccc([N+](=O)[O-])cc3[nH]2)c(=O)n(-c2ccccc2)n1C | > | 100 |
| Nc1nc(N)[n+]([O-])c(N)c1NCO | > | 100 |
| CC(C)(C)c1cc(C(=O)/C=C/c2ccc(O)c(O)c2O)cc(C(C)(C)C)c1O | = | 26.5 |
| O=C(O)C(Cc1ccc2c(c1)CCC2)(Cc1ccc2c(c1)CCC2)C(=O)O | > | 100 |
| Cc1cc(C)nc(NS(=O)(=O)c2ccc(Nc3c4ccccc4nc4c(C(=O)Nc5ccc(S(N)(=O)=O)cc5)cccc34)cc2)n1 | > | 100 |
| Cc1cc(NC(=O)C2c3ccccc3C(=O)N(CC(C)C)C2c2cccs2)no1 (stereo unspecified) | > | 100 |
| COc1cccc(NC(=O)c2sc3nc4c(cc3c2N)CCCC4)c1 | = | 39.9 |
| COc1ccc(NC(=O)CC(=O)n2nc(C)c(N=Nc3ccc(C)c(C)c3)c2C)cc1 | > | 100 |
| COc1cc2c3c(n(C)c(=O)c2cc1OC)-c1cc2c(cc1/C3=C\CCCCN)OCO2 | = | 57.3 |

---

System: KM20L2 colon
Assay: NCI tumour cell line growth inhibition, 48 h
Measured TGI, listed per entry.

| molecule | test_target | TGI |
| --- | --- | --- |
| O=C1CC2CC=C[C@H]3c4cc5c(cc4C(=O)N1C23)OCO5 (some centres not stated) | KM20L2 colon | > 50 µM |
| O=C1Nc2cccc3ncn(c23)C2=C1CCCC2 | KM20L2 colon | > 100 µM |
| CCN(CC)CCNC(=O)c1ccc([N+](=O)[O-])cc1OC | KM20L2 colon | > 100 µM |
| O=C1C2=C(c3ccccc31)C(c1ccc(Cl)cc1)N1C(=O)CCSC1=N2 (configuration not stated) | KM20L2 colon | > 100 µM |
| CCCCCCC(=O)C/C(CCC(=O)N(Cc1ccccc1)Cc1ccccc1)=N\Nc1ccc([N+](=O)[O-])cc1[N+](=O)[O-] | KM20L2 colon | > 100 µM |
| CC(=O)Oc1c(C)n(CCCl)ccc1=O | KM20L2 colon | > 100 µM |
| O/N=C1/C(=C/c2ccc(F)cc2)CCCC1C(NO)c1ccc(F)cc1 (configuration not stated) | KM20L2 colon | 72.2 µM |
| N[C@H]1C2C3CC4C5CC(C42)C1(c1ccccc1)C53 (some centres not stated) | KM20L2 colon | > 100 µM |
| CC1=C(C(=O)Nc2ccc([N+](=O)[O-])cc2)C(c2ccco2)C(C(=O)Nc2ccc([N+](=O)[O-])cc2)=C(C)N1 | KM20L2 colon | 60 µM |
| COC1C=C(Nc2cccc(Cl)c2)C(=O)C1 (configuration not stated) | KM20L2 colon | > 100 µM |
| CCOC(=O)Cc1c(Cc2[nH]c(C(=O)OCc3ccccc3)c(CC(=O)OCC)c2CC(=O)OCC)[nH]c(C(=O)OCc2ccccc2)c1CC(=O)OCC | KM20L2 colon | > 100 µM |
| CCOC(=O)/N=c1\ss/c(=N\C(=S)N(C)C)n1-c1ccccc1 | KM20L2 colon | > 100 µM |
